# MEASUREMENT NOTES: NOVARTIS: Cytotoxicity against human hepatocellular carcinoma cell line (Huh7)
# Format: toxicity, cell-based, Huh-7
# CONDITION DESCRIPTION: Huh7 cells (hepatocellular carcinoma cell line)
MEASURED PARAMETER: CC50

COc1ccc(OC)c(-c2ccc(O)c(CN3CCC(c4ccccc4)CC3)c2)c1    > 100 µM
OCCCNc1cc(-c2ccnc(Nc3cccc(Cl)c3)n2)ccn1    0.269 µM
COC(=O)C1=C(C)N/C(=C/c2cc(C)n(-c3ccc(Cl)c(Cl)c3)c2C)C1=O    > 10 µM
COCCSc1nc2sc3c(c2c(=O)n1-c1ccc(OC)cc1)CCN(C)C3    > 100 µM
CCCS(=O)(=O)c1c(S(=O)(=O)CCC)c2ccc(C(C)=O)cn2c1C(=O)c1ccc(C)cc1    > 100 µM
Cc1cc(Nc2ccccc2)nc(Nc2ccccc2)n1    20 µM
CCCCc1ccc(C(=O)N(CCc2ccccc2)C(CC)c2nc3ccccc3c(=O)n2-c2ccccc2OC)cc1 (configuration not stated)    > 6.27 µM
COc1c(N2CCN(Cc3c(C)cc(C)cc3C)CC2)c2nc3oc2c2c(OC(=O)C(C)(C)C)c(C)c4c(c12)[C@@H](O)[C@@](C)(OC=C[C@H](OC)[C@@H](C)[C@@H](OC(C)=O)C(C)[C@H](O)[C@H](C)[C@@H](O)C(C)C=CC=C3C)O4 (some centres not stated)    > 10 µM
COC(=O)N(C)C(C)(C)C(C)=NOC(=O)c1ccccc1    > 10 µM
Cc1cc(Nc2ccc(Cl)cc2)n2nnnc2n1    > 10 µM
COc1ccc2nc(C)cc(Nc3ccc(Oc4ccc5ccccc5c4)c(Cl)c3)c2c1    7.07 µM
CCOC(=O)c1c[nH]c2c(ccc3ccccc32)c1=O    > 100 µM
O=C(CCN1C(=O)C2CCCCC2C1=O)N1CCc2ccccc2C1 (configuration not stated)    > 100 µM
O=C1C2C(C(=O)N1c1ccccc1F)C1(c3ccccc3)C(=O)C2(c2ccccc2)C(c2ccccc2)=C1c1ccccc1 (configuration not stated)    > 100 µM
COC(=O)C1=C(C)NC(=Cc2cc(C)n(-c3cc(C)ccc3OC)c2C)C1=O    > 100 µM
Cc1ccc(NC(=O)c2cc(C(=O)c3cc(Cl)ccc3O)cn(-c3ccc(C)c(C)c3)c2=O)cc1C    > 100 µM
Cc1c(Cl)cccc1-n1c(C(C)N(CCc2ccccc2)C(=O)COc2ccccc2)nc2ccccc2c1=O (configuration not stated)    > 10 µM
NC(=O)Cc1ccccc1    > 100 µM
C#CCN1c2ccccc2Sc2cccnc21    36.4 µM
N=c1c2c(n(Cc3ccccc3)c3c1CCC3)CCC2    41.2 µM
O=C(Nc1ccc(-c2nc3cc(NC(=O)C(c4ccccc4)c4ccccc4)ccc3[nH]2)cc1)C(c1ccccc1)c1ccccc1    > 100 µM
CCOc1ccc(Nc2nc(N3CCCCC3)nc(N3CCCCC3)n2)cc1    > 10 µM
CCOc1ccc(Nc2nc(NCc3ccco3)c3ccccc3n2)cc1    11.6 µM
COc1ccc(N2C(=O)c3cccnc3C2=O)cc1    > 10 µM
COc1ccc(CC(=O)Nc2ccc(S(=O)(=O)N3CCCCCC3)cc2)cc1    > 100 µM
CC(=O)O[C@@H]1C(=O)[C@@]2(C)[C@H]([C@H](OC(=O)c3ccccc3)[C@@]3(O)C[C@H](OC(=O)[C@H](O)[C@@H](NC(=O)c4ccccc4)c4ccccc4)C(C)=C1C3(C)C)[C@]1(OC(C)=O)CO[C@@H]1C[C@@H]2O    1.21 µM
COc1cccc(C(=O)NCc2nnc(S)n2-c2ccc(Cl)c(Cl)c2)c1    > 100 µM
